FYI, the data here is from patent US20240115745A1.

Parameter: IC50. Scope: all listed entries.
Target: FAP-expressing human WI-38 fibroblasts (Homo sapiens)
Construct: FAP-expressing human WI-38 fibroblasts (ECACC) were cultured in EMEM; host or cells: WI-38 human fibroblasts
Sequence (Q12884 whole entry): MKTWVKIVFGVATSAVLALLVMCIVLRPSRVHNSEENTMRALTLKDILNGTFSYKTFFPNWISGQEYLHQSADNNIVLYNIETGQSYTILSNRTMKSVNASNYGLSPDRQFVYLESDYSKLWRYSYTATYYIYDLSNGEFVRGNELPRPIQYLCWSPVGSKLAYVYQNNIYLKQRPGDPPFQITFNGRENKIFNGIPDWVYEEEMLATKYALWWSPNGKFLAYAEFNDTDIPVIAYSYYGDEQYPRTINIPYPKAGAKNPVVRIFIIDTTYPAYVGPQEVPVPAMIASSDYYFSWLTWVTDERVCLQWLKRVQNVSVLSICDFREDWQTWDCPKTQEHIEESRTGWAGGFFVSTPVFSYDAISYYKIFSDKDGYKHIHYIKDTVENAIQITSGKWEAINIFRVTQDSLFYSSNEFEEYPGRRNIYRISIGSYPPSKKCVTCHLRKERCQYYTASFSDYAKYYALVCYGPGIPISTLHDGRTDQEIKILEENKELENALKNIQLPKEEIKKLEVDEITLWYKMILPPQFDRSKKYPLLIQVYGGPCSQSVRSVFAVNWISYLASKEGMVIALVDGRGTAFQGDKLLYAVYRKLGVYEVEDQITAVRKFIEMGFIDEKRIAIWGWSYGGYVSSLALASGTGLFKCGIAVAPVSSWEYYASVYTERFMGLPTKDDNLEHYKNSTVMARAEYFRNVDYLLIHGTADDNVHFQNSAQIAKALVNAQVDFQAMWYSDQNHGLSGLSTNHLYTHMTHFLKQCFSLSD
Assay: Competitive FACS binding assay
Conditions: competition with 3 nM Cy5-labeled compound, WI-38 fibroblasts, 4° C., 1 hour; read-out: pIC50 Category (FACS) (converted)
*1 amine or outer side, *2 acyl side, *3 side chain or, on linkers, in order; H or OH if unused. Where a SMILES comes first, the peptide text is derived from it. Bridges are numbered along the chain shown (N, C = ends). [ ]: non-standard residue; d: D form. The star is where a group is joined. X1 = NC(=O)CC[C@H](N[*:1])C(=O)C[C@@H](Cc1ccccc1)C(=O)[*:2]; DOTA = O=C(O)CN1CCN(CC(=O)O)CCN(CC(=O)*)CCN(CC(=O)O)CC1; Maleimide(3,4-diyl) = O=C1NC(=O)C([*:2])=C1[*:1]; Nle = CCCC[C@H](N)C(=O)O; Hexanoyl = CCCCCC(=O)*; AEEA = NCCOCCOCC(=O)O

compound: CCCCCC(=O)N[C@H]1CSSC[C@@H](C(=O)N[C@@H](CC(=O)O)C(=O)N[C@@H](CCCCNC(=O)CN2CCN(CC(=O)O)CCN(CC(=O)O)CCN(CC(=O)O)CC2)C(N)=O)NC(=O)[C@H](Cc2ccccc2)NC(=O)[C@H](CCC(N)=O)NC(=O)[C@H]([C@@H](C)O)NC(=O)[C@@H]2CCCN2C(=O)[C@@H]2CCCN2C1=O [Compound 1016] (Hexanoyl-CPPTQFCDK(DOTA)-NH2; disulfide 1-7)
IC50: < 0.1 µM
--
compound: CCCC[C@H](NC(=O)CCC(=O)NCCCOCCOCCOCCCNC(=O)CN1CCN(CC(=O)O)CCN(CC(=O)O)CCN(CC(=O)O)CC1)C(=O)N[C@H]1CSC2=C(SC[C@@H](C(=O)NCCC(=O)O)NC(=O)[C@H](Cc3ccccc3)CC(=O)[C@H](CCC(N)=O)NC(=O)[C@H]([C@@H](C)O)NC(=O)[C@@H]3CCCN3C(=O)[C@@H]3CCCN3C1=O)C(=O)NC2=O [Compound 2009]
IC50: < 0.1 µM

Task: Dear colleague, I am looking for the recorded IC50 of the following compound: CCCC[C@H](NC(=O)COCCOCCNC(=O)CN1CCN(CC(=O)O)CCN(CC(=O)O)CCN(CC(=O)O)CC1)C(=O)N[C@H]1CSC2=C(SC[C@@H](C(=O)N[C@@H](CC(=O)O)C(N)=O)NC(=O)[C@H](Cc3ccccc3)CC(=O)[C@H](CCC(N)=O)NC(=O)[C@H]([C@@H](C)O)NC(=O)[C@@H]3CCCN3C(=O)[C@@H]3CCCN3C1=O)C(=O)NC2=O [Compound 2004] ({DOTA-AEEA}-[Nle]CPPT[X1]CD-NH2; linker 2-7 via Maleimide(3,4-diyl))
Output: < 0.1 µM

---

Target: FAP-expressing human WI-38 fibroblasts (Homo sapiens)
Construct: FAP-expressing human WI-38 fibroblasts (ECACC) were cultured in EMEM; host or cells: WI-38 human fibroblasts
Test: Competitive FACS binding assay;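 also: flow cytometry read-out of median Cy5 fluorescence on the cells, plotted versus test compound concentration, with IC50 derived by four-parameter logistic curve fitting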
Conditions: competition with 3 nM Cy5-labeled compound, WI-38 fibroblasts, 4° C., 1 hour; read-out: pIC50 Category (FACS) (converted)
*1 amine or outer side, *2 acyl side, *3 side chain or, on linkers, in order; H or OH if unused. Where a SMILES comes first, the peptide text is derived from it. Bridges are numbered along the chain shown (N, C = ends). [ ]: non-standard residue; d: D form. The star is where a group is joined. X11 = O=C(O)CN1CCN(CC(=O)O)CCN([C@H](CCC(=O)*)C(=O)O)CC1; X2 = O=C1NC(=O)C([*:3])=C1CC[C@H](N[*:1])C(=O)[*:2]; Hexanoyl = CCCCCC(=O)*
// values below are reported IC50

Please review the entries below; each comes with its answer.
molecule: CCCC[C@H](NC(=O)CCC(=O)NCCCOCCOCCOCCCNC(=O)C(CNCCN)CNCCN)C(=O)N[C@H]1CSC2=C(SC[C@@H](C(=O)NCCC(=O)O)NC(=O)[C@H](Cc3ccccc3)NC(=O)[C@H](CCC(N)=O)NC(=O)[C@H]([C@@H](C)O)NC(=O)[C@@H]3CCCN3C(=O)[C@@H]3CCCN3C1=O)C(=O)NC2=O [Compound 2022]
IC50: < 100 nM
--
molecule: CCCCCC(=O)N[C@H]1CSC2=C(CC[C@@H](C(=O)N[C@@H](CC(=O)O)C(=O)N[C@@H](CCCCNC(=O)CC[C@H](C(=O)O)N3CCN(CC(=O)O)CCN(CC(=O)O)CC3)C(N)=O)NC(=O)[C@H](Cc3ccccc3)NC(=O)[C@H](CCC(N)=O)NC(=O)[C@H]([C@@H](C)O)NC(=O)[C@@H]3CCCN3C(=O)[C@@H]3CCCN3C1=O)C(=O)NC2=O [Compound 2023] (Hexanoyl-CPPTQF[X2]DK(X11)-NH2; thioether 1-7)
IC50: < 100 nM

# next molecule below
Task: What is its IC50 for FAP-expressing human WI-38 fibroblasts (Homo sapiens)? Entry: CCCCCC(=O)N[C@H]1CSSC[C@@H](C(=O)N[C@@H](CC(=O)O)C(=O)N[C@@H](Cc2c[nH]cn2)C(=O)N[C@@H](Cc2ccccc2)C(=O)N[C@@H](CCCNC(=N)N)C(=O)N[C@@H](CC(=O)O)C(N)=O)NC(=O)[C@H](Cc2ccccc2)NC(=O)[C@H](CCC(=O)O)NC(=O)[C@H]([C@@H](C)O)NC(=O)[C@@H]2CCCN2C(=O)[C@@H]2CCCN2C1=O [Compound 1002] (HELM PEPTIDE1{[CCCCCC(=O)[*:2]].C.P.P.T.E.F.C.D.H.F.R.D.[am]}$PEPTIDE1,PEPTIDE1,2:R3-8:R3$$$V2.0)
Output: < 100 nM
